Test system: German cockroaches (Blattella germanica)
assayMethodText: Spray knockdown test on German cockroaches (Test Examples 1, 2)
Type: in vivo
experimentalContext: 5 min, active ingredient 0.5% w/v oil solution, 1.5 ml sprayed, counted after 5 minutes, read-out: knockdown rate
observable: pest or weed control at 0.5 %

[[record]]
compound = "CCCCC/C=C/C(=O)NCC1CCOC1 (centres unmarked) [Compound (1)]"
observable = "pest or weed control at 0.5 %"
reportedvalue = "≥ 70%"

[[record]]
compound = "CCCCCCC/C=C/C(=O)NCC1CCOC1 (centres unmarked) [Compound (4)]"
observable = "pest or weed control at 0.5 %"
reportedvalue = "≥ 70%"

[[record]]
compound = "CCC1CC1CC/C=C/C(=O)NCC1CCOCC1 (centres unmarked) [Compound (44)]"
observable = "pest or weed control at 0.5 %"
reportedvalue = "≥ 70%"

[[record]]
compound = "CCCCCC/C(C)=C/C(=O)NCC1CCOCC1 [Compound (28)]"
observable = "pest or weed control at 0.5 %"
reportedvalue = "≥ 70%"

[[record]]
compound = "CCCCCC/C=C/C(=O)NCC1CCOC1 (centres unmarked) [Compound (2)]"
observable = "pest or weed control at 0.5 %"
reportedvalue = "≥ 70%"

